Source listed as patent US8664289B2.

protocol summary: Heat resistance of exposed coating film of coloring alkali-developable photosensitive composition
Assay type: physicochemical
condition info: coating film after exposure (150 mJ/cm^2), before heating
Would you kindly list Relative intensity After exposure for each of these molecules?
Numbers only.

Example entries and their recorded answers appear below.
[[record]]
molecule = "CCN(CC)c1ccc(/C=C(\\C#N)C(=O)OCCCOC(=O)/C(C#N)=C/c2ccc(N(CC)CC)cc2)cc1"
property_label = "Relative intensity After exposure"
readout_value = 100

[[record]]
molecule = "CCN(CC)c1ccc(/C=C(\\C#N)C(=O)OCC(C)(COC(=O)/C(C#N)=C/c2ccc(N(CC)CC)cc2)COC(=O)/C(C#N)=C/c2ccc(N(CC)CC)cc2)cc1"
property_label = "Relative intensity After exposure"
readout_value = 100


Next:
Enquiry: Entry under review: CCN(CC)c1ccc(/C=C(\C#N)C(=O)OCC(C)OC(=O)/C(C#N)=C/c2ccc(N(CC)CC)cc2)cc1 (stereo not drawn) . Reported Relative intensity After exposure?
Return: 100
